All values here come from paper PMC10107836.

assayed.target: AcmJRL (Ananas comosus, UniProt Q53J09)
pIC50: −log10 of the molar value.
measurement.name: pIC50

> print(dat)
                                   compound  value
1  CO[C@H]1O[C@H](CO)[C@@H](O)[C@H](O)[C@@H]1O [Me-α-D-Man, methyl α-D-mannopyranoside]   1.97

###

assayed.target: AcmJRL (Ananas comosus, UniProt Q53J09)
assay.explanation: Reporter ligand displacement assay
Assay type: binding
condition.info: carbohydrate at 10 mM
Sequence (Q53J09 1-145): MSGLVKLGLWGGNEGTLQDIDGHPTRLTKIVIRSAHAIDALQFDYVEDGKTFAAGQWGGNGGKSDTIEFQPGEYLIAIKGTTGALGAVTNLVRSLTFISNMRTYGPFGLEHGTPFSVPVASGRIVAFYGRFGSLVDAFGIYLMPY
measurement.name: inhibition of AcmJRL, single concentration (in words)

> print(dat)
                                   molecule                           assayed.target                 value
1  N[C@H]1C(O)O[C@H](CO)[C@@H](O)[C@@H]1O (stereo partly shown)  AcmJRL (Ananas comosus, UniProt Q53J09)  confirmed as ligands
2  CC(=O)N[C@@H]1[C@@H](O)[C@H](O)[C@@H](CO)O[C@H]1O  AcmJRL (Ananas comosus, UniProt Q53J09)  confirmed as ligands
